Data provenance is patent EP1247803A2.

target: FLK-1 receptor (Mus musculus); construct: expressed in transfected cells; host or cells: NIH3T3 C7#3; assay: FLK-1 ELISA (kinase activity of the FLK-1 receptor in FLK-1/NIH3T3 cells, VEGF stimulated); type: cell-based
Sequence (P35918 20-1345): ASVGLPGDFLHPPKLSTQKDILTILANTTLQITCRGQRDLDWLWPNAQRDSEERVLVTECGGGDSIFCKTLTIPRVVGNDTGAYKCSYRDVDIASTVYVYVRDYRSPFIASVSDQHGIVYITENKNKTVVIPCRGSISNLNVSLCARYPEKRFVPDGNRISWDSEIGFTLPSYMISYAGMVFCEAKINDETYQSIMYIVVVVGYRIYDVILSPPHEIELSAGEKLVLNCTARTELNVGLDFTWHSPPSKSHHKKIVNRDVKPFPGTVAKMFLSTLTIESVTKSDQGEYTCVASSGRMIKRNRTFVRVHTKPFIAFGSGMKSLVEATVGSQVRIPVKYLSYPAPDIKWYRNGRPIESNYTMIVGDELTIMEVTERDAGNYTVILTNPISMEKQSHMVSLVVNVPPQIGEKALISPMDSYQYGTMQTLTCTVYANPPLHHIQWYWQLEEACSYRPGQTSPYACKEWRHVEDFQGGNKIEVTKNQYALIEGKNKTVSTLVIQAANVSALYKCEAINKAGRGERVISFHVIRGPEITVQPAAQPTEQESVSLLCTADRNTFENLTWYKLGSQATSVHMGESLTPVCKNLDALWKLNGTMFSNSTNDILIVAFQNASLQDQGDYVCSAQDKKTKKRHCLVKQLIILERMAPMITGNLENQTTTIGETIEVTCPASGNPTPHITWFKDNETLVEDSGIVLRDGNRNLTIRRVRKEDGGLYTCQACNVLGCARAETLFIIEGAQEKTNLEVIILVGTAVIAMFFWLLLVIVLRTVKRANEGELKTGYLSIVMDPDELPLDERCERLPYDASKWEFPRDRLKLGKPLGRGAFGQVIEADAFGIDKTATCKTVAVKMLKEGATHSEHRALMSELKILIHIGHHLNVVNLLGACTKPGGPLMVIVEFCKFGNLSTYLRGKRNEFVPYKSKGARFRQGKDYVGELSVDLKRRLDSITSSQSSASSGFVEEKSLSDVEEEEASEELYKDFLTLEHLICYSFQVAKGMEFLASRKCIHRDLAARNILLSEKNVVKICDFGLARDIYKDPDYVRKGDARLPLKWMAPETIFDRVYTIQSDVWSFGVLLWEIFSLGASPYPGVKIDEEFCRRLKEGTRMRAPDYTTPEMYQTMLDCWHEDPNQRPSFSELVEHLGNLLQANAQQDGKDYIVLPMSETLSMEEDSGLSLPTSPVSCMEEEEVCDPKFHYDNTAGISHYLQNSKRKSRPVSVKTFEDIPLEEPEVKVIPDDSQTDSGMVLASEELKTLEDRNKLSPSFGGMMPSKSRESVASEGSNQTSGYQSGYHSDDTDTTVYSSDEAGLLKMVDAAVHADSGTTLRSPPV
quantity_kind: Fik Kinase %Inhibition (%)
Record the value in %, omitting the unit from your answer.

FLK-1 receptor (Mus musculus) Fik Kinase %Inhibition of COc1cc(N(C)C)ccc1C=C1C(=O)Nc2ccc(CCCl)cc21 [10728/G05] is 9.4

FLK-1 receptor (Mus musculus) Fik Kinase %Inhibition of CC(C)c1ccc2occ(C=C3C(=O)Nc4ccc(S(=O)(=O)N5CCOCC5)cc43)c(=O)c2c1 [10731/F05] is 17.6

FLK-1 receptor (Mus musculus) Fik Kinase %Inhibition of COc1ccc(C=C2C(=O)Nc3ccc(S(=O)(=O)Nc4ccc(C(F)(F)F)cc4)cc32)c(OC)c1OC [10730/E02] is 24.8
